This listing pairs molecules with measured IC50.
target: E3 (His-APC11/APC2, "APC") (Homo sapiens, UniProt Q9NYG5+Q9UJX6); experiment: Plate-based E3 ligase assay (APC FLAG), auto-ubiquitination; format: biochemical; conditions: Table 2; read-out: APC IC50
Sequence (Q9NYG5 whole entry): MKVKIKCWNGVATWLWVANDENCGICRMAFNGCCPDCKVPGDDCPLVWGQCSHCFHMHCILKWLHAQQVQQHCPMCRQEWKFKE
Sequence (Q9UJX6 whole entry): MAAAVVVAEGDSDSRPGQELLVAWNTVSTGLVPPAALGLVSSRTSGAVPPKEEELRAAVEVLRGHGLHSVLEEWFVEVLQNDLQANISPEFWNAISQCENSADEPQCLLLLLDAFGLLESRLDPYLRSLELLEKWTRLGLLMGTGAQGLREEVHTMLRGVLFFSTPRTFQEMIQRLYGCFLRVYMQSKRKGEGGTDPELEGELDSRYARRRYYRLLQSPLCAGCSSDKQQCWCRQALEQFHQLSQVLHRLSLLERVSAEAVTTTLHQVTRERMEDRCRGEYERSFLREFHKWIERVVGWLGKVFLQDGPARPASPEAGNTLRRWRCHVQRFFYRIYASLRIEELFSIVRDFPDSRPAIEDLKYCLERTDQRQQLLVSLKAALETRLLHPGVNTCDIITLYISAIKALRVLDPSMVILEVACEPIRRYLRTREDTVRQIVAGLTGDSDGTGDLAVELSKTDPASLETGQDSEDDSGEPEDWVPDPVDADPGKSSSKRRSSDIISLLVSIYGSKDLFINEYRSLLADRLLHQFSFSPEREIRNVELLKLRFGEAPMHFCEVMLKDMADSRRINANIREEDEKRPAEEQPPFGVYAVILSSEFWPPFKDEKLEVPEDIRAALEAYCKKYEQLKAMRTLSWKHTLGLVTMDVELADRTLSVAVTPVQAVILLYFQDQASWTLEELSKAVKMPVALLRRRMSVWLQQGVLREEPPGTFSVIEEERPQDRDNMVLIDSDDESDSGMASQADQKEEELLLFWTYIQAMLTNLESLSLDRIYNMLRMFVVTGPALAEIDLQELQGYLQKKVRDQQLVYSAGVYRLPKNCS

// worked examples, IC50 included
molecule | IC50
COc1ccc(-c2csc(N(Cc3ccc(C(=O)N4CCNCC4)cc3)Cc3cccc(OC)c3OC)n2)cc1 | 1 to 20 µM
CCN(Cc1ccc(C(=O)NCc2cccc(CN)c2)cc1)c1nc(-c2ccc(-c3ccccc3)cc2)cs1 | 1 to 20 µM
O=C(c1ccc(CN(Cc2cccc(OC(F)(F)F)c2)c2nc(-c3ccc(Cl)cc3)cs2)cc1)N1CCNCC1 | ≥ 20 µM
COc1ccc(OC)c(-c2csc(N(CCOc3ccccc3)Cc3ccc(C(=O)N4CCNCC4)cc3)n2)c1 | ≥ 20 µM

We now examine a further molecule.
Exercise: Look up IC50 for this molecule: COc1ccc(-c2csc(N(CCN(C(C)C)C(C)C)Cc3ccc(C(=O)N4CCNCC4)cc3)n2)cc1
Solution: ≥ 20 µM
